Sourced from patent US20250034266A1

# MEASURED_ON: T1, cynomolgus CCR8 (cynomolgus, UniProt G7NYJ2 1-355)
# T1 construct: whole, on cells; also called HEK293-Cynomolgus CCR8; ExpiCHO-S cynomolgus CCR8
# TEST_PROTOCOL: FACS on HEK293-Cynomolgus CCR8 cells
TEST_READOUT: Max MFI

[[record]]
binder = "164G10D6 (antibody, V domains shown, Murine hybridoma antibody; also called 164G10C6) VH: EVQLVESGGGLVQPKGSLKLSCAASGFTFNTYAMNWVRQAPGKGLEWVARIRSKSNFYATYYADSVKDRFTISRDDSQDMLYLQMNILKTEDTAIYYCVRGRDYGSSYAMDYWGQGTSVTVSS VL: DIVMTQAAPSVPVTPGESVSISCRSSKSLLHSNGNTYLYWFLQRPGQSPQLLIYRMSNLASGVPDRFSGSGSGTAFTLRISRVEAEDVGVYYCMQHLEYPLTFGAGTKLELK"
measured = "8290 MFI"

[[record]]
binder = "348E2D11 (antibody, V domains shown, Murine hybridoma antibody) VH: QVQLVETGGGLVRPGNSLKLSCVTSGFSFSNYRMHWLRQPPGKRLEWIAVITVKSDNYGANYAESVKGRFTISRDDSKSSVYLQMNRLREEDTATYYCSSLGRVAYWGQGTLVTVSA VL: DIVMTQSQKFMFTSVGDRVSVTCKASQNVDTNVVWYQQKPGQSPKALIYSASSRYSGVPDRFTGSGSGTDFTLTISNVQSEDLAEYFCQQHNSFPLTFGAGTKLELI"
measured = "7580 MFI"

[[record]]
binder = "191E12H8 (antibody, V domains shown, Murine hybridoma antibody) VH: DVQLQESGPGLVKPSQSLSLTCSVTGYSITSGYYWNWIRQFPGNKLEWMGYISYDGSNNYNPSLKNRISITRDISKNQFFLKLNSVTTEDTATYYCARQIGLRRGAMDYWGQGTSVTVSS VL: DIQMTQSSSYLSVSLGGRVTITCKASDHINTWLAWYQQKPGNAPRLLISGSTSLKAGVASRFSGSGSGKDYTLTITSLQTEDVATYYCQQYWGIPFTFGGGTKLEIK"
measured = "5190 MFI"

[[record]]
binder = "204A2G12 (antibody, V domains shown, Murine hybridoma antibody) VH: DVQLQESGPGLVKPSQSLSLTCSVTGYSITSGYYWNWIRQFPGNKLEWMGYISYDGTNNYNPSLKNRISITRDTSKNQFFLKLTSVTTEDTATYYCARQVGLRRAWFAYWGQGTLVTVSA VL: DIQMTQSSSFLSVSLGGRVTITCKASDHINYWLAWYQQKPGNAPRLLISGATSLETGVPSRFSGSGSGKDYTLTITSLQNEDVATYYCHQYWSTPTFGSGTKLEIK"
measured = "3200 MFI"

[[record]]
binder = "262C2G7 (antibody, V domains shown, Murine hybridoma antibody) VH: DVHLQESGPGLVKPSQSLSLTCSVTGYSITSGYYWNWIRQFPGNKLEWMGYISYDGSNNYNPSLKNRISITRDISKNQFFLKLNSVTTEDTATYYCARQIGLRRGAMDYWGQGTSVTVSS VL: DIQMTQSSSYLSVSLGGRVTITCKASDHINNWLAWYQQKPGNAPRLLISGSTSLKAGVASRFSGSGSGKDYTLTITSLQTEDVATYYCQQYWGIPFTFGGGTKLEIK"
measured = "2940 MFI"

[[record]]
binder = "153D4G2 (antibody, V domains shown, Murine hybridoma antibody; also called 153D3G2; 1531D4G2) VH: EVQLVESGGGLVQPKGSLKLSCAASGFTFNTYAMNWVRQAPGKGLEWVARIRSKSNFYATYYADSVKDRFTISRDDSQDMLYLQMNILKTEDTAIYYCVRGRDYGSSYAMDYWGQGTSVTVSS VL: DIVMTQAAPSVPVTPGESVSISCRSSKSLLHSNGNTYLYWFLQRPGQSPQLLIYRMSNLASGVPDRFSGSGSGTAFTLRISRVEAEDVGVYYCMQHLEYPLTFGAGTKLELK"
measured = "10700 MFI"

[[record]]
binder = "273H2G6 (antibody, V domains shown, Murine hybridoma antibody) VH: DVQLQESGPGLVKPSQSLSLTCSVTGYSITSGYYWNWIRQFPGNKLEWMGYISYDGSNNYNPSLKNRISITRDISKNQFFLKLNSVTTEDTATYYCARQVGLRRGAMDYWGQGTSVTVSS VL: DIQMTQSSSYLSVSLGGRVTITCKASDHINNWLAWYQQKPGNAPRLLISGSTSLKAGVASRFSGSGSGKDYTLSITSLQTEDVATYYCQQYWSIPYTFGGGTKLEIK"
measured = "3500 MFI"

